System under test: Recombinant human cathepsin A (Homo sapiens, UniProt P10619)
Construct: Recombinant human cathepsin A (residues 29-480, with a C-terminal 10-His tag); 10-His (C); purchased R&D Systems 1049-SE
Sequence (P10619 29-312 limits assumed): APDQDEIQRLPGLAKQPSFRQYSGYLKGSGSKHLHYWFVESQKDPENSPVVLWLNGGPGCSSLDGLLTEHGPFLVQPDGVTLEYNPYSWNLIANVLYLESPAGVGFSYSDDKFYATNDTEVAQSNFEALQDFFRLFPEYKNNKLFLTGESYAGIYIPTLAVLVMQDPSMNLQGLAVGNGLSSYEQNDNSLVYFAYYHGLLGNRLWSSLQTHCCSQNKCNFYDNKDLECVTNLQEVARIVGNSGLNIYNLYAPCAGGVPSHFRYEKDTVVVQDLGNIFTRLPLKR
Sequence (P10619 327-480 limits assumed): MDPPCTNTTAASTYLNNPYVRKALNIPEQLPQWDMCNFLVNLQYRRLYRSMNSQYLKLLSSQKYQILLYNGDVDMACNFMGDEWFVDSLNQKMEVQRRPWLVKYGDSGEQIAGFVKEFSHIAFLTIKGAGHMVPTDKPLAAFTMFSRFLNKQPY
Protocol text: Cathepsin A inhibitory activity
Assay type: biochemical
Condition notes: read-out: Activity (2): Cathepsin A inhibitory activity, IC50 class
Entries and their measured IC50 follow.

Please review the following examples before continuing.
- Molecule: "CC(C)(C)[C@](C)(O)COc1cc(C(=O)N[C@H](CC(=O)O)Cc2ccc(C#N)cc2)nn1-c1ccccc1F"
  System under test: "Recombinant human cathepsin A (Homo sapiens, UniProt P10619)"
  IC50: "1 to 30 µM"
- Molecule: "O=C(O)C[C@H](NC(=O)c1cc(O)n(-c2ccc(F)cc2)n1)c1cccnc1"
  System under test: "Recombinant human cathepsin A (Homo sapiens, UniProt P10619)"
  IC50: "1 to 30 µM"

// IC50 value for Cc1ccc(C)c(-n2nc(C(=O)NC(CC(=O)O)CC(C)C)cc2O)c1 (stereo not drawn) : 1 to 30 µM
